System: NCI-H522 lung
ASSAY_SUMMARY: NCI-60 one-dose screen, 48 h (100 = growth as untreated, 0 = no growth, -100 = all killed)
RECORDED_CONDITIONS: 10 µM unless noted
The panel holds about 83,000 compounds, 20% with a hit somewhere; the sample as a whole holds those more often.
READOUT_LABEL: growth (%)
Numeric only. Scale: %

Query: Requested read-out: growth. Entry: CCC(c1cccc(Br)c1)C(C(=O)O)c1ccc(OC)cc1 (centres undefined)
Result: 91.5

Query: Requested read-out: growth. Entry: COc1ccc(C(=O)/C=C/c2cccc([N+](=O)[O-])c2)c(OC)c1
Result: 7.28

Query: Requested read-out: growth. Entry: COc1c(NC[C@H]2OC(O)[C@H](O)[C@@H](O)[C@@H]2O)c(=O)c1=O (some centres undefined)
Result: 114

Query: Requested read-out: growth. Entry: CCN1C(=O)/C(=c2\sc3n(c2=O)C2C(NN=3)N(CC)C(=S)N2CC)c2ccccc21 (centres undefined)
Result: 91.9

Query: Requested read-out: growth. Entry: COc1ccc(/C=C\c2cc(OC)c(OC)c(OC)c2)c(NS(=O)(=O)c2ccc(C(C)(C)C)cc2)c1O
Result: -7.56

Query: Requested read-out: growth. Entry: O=[N+]([O-])c1c(S(=O)(=O)O)cc2cc(S(=O)(=O)O)ccc2c1[N+](=O)[O-]
Result: 86.1

Query: Requested read-out: growth. Entry: CC(Br)C(OC(=O)c1ccccc1Cl)c1cc2c(cc1Br)OCO2 (centres undefined)
Result: 87.9

Query: Requested read-out: growth. Entry: O=C(CCCn1c2c(sc3ccccc32)c(=O)n2nnc(-c3ccccc3)c12)NCCc1cnc[nH]1
Result: -95.8

Query: Requested read-out: growth. Entry: O=c1cc(C2NCCc3c2[nH]c2ccccc32)c2c(ccc3ccccc32)o1 (centres undefined)
Result: 62.4

###

Consider the following compounds; for each one, report its growth.
Tested on: RXF 393 renal
ASSAY_SUMMARY: NCI-60 one-dose screen, 48 h (100 = growth as untreated, 0 = no growth, -100 = all killed)
RECORDED_CONDITIONS: 10 µM unless noted
This is part of a sample that, as a whole, favours compounds with a hit. Of some 83,000 tested, about 20% had one in any assay.
Numeric only. Scale: %

Query: Requested read-out: growth. Entry: O=C(CN1CCN(c2cc3c(cc2F)c(=O)c(C(=O)O)cn3C2CC2)CC1)Nc1ccc(C(=O)/C=C/c2ccc(Cl)cc2)cc1
Result: 94.1

Query: Requested read-out: growth. Entry: CC(C)C[C@H](NC(=O)[C@@H](Cc1ccccc1)n1ccc(Nc2ccccc2)cc1=O)B(O)O
Result: -80.2

Query: Requested read-out: growth. Entry: CCN(Cc1ccc(CN(CC)C(=O)C(Br)Br)cc1)C(=O)C(Br)Br
Result: 67.9

Query: Requested read-out: growth. Entry: COc1cc(C(=O)CCCl)ccc1O
Result: 98.2

Query: Requested read-out: growth. Entry: Cc1ccc2c(c1)C(=O)C(c1c(-c3[nH]c(=O)c4ccc(C)cc4c3O)c(O)c3ccccc3c1O)=NC2=O
Result: -10.8

Query: Requested read-out: growth. Entry: COc1ccc(C(=O)c2cc(OC)c(OC)c(OC)c2)cc1/C=C/C(=O)c1ccc(O)cc1
Result: 35.1

Query: Requested read-out: growth. Entry: CCN(CC)P(=O)(N(CC)CC)N(CCCSC/C=C(\C)CC/C=C(\C)CCC=C(C)C)CCCN1CCN(C)CC1
Result: 91.3

Query: Requested read-out: growth. Entry: CCN(Cc1ccc(CN(CC)C(=O)C(Cl)(Cl)Cl)cc1)C(=O)C(Cl)(Cl)Cl
Result: 101

Query: Requested read-out: growth. Entry: Clc1cccc(Cl)c1Cn1c(-c2cncs2)nc2ccccc21
Result: 95
